assayProcedure: In vitro rat microsomal stability assay
Assay type: in vitro ADME, rat (Sprague-Dawley)
conditionSet: Sprague-Dawley, rat, microsomes, 0.5 h, 0.5 μM, pH 7.4
measure: RAT MICROSOMAL STABILITY (% REMAINING AFTER 30 MINUTES) (%)

// worked examples, RAT MICROSOMAL STABILITY (% REMAINING AFTER 30 MINUTES) included
Would you kindly share the measured RAT MICROSOMAL STABILITY (% REMAINING AFTER 30 MINUTES) for O=C1CC(c2ccnc(C(F)(F)F)c2)(C(O)c2ccccn2)C1 (stereo not drawn) [Example 298] ?
59

Would you kindly share the measured RAT MICROSOMAL STABILITY (% REMAINING AFTER 30 MINUTES) for OC(c1ccccn1)C1(C2(O)CCOC2)CCC1 (stereo not drawn) [Example 246] ?
59

Would you kindly share the measured RAT MICROSOMAL STABILITY (% REMAINING AFTER 30 MINUTES) for OC1CC(c2cccc(OC(F)(F)F)c2)(C(O)c2ccccn2)C1 (single isomer, unassigned) [Example 273] ?
65

Would you kindly share the measured RAT MICROSOMAL STABILITY (% REMAINING AFTER 30 MINUTES) for OC(c1ccccn1)C1(c2cncc(C(F)(F)F)c2)CCC1 (stereo not drawn) [Example 110] ?
2.8

Would you kindly share the measured RAT MICROSOMAL STABILITY (% REMAINING AFTER 30 MINUTES) for N[C@@H]1CCC[C@H]1[C@@H](O)C1(c2ccc(Cl)cc2)CCC1 [Example 224] ?
70

(1) CC(C)(C)OC(=O)N1CCC(c2ccc(C(F)(F)F)cc2)(C(O)c2ccccn2)CC1 (stereo not drawn) [Example 156]
(2) OC(c1ccccn1)C1(c2ccc(C(F)(F)F)cc2)CCNCC1 (stereo not drawn) [Example 147]
Of the two listed items, which has the higher RAT MICROSOMAL STABILITY (% REMAINING AFTER 30 MINUTES)? First: 1 Second: 2 # respond with the chosen item's label
2

The reported measurements were obtained from patent US8772499B2.
